tested on: MT4; experiment: Inhibitory activity against 100I strain and 103N strain of HIV-I in MT-4 cell was determined; type: functional, cell-based; settings: Homo sapiens

COMPOUND STRUCTURE | OP | IC50 (µM)
Cc1cc(Br)cc(C)c1Nc1ncnc(Nc2ccc(C#N)cc2)n1 | = | 3.16
Cc1cc(C)c(Oc2ncnc(Nc3ccc(C#N)cc3)n2)c(C)c1 | > | 10
Cc1cc(C)c(Sc2ncnc(Nc3ccc(C#N)cc3)n2)c(C)c1 | > | 10
Cc1cc(C#N)cc(C)c1Oc1ncnc(Nc2ccc(C#N)cc2)n1 | = | 3.98
Cc1cc(C#N)cc(C)c1Nc1ncnc(Nc2ccc(C#N)cc2)n1 | = | 2.51
